From: paper PMC10146949

- Target Of Assay: S1R (Cavia porcellus, UniProt Q60492)
- Construct: Fresh guinea pig brain cortex was homogenized in ice-cold Tris (50 mM, pH 7.4); tissue ENVIGO RMS S.R.L., Udine, Italy (animals); host or cells: male Dunkin-Hartley guinea pig brain cortex membranes
- Sequence (Q60492 whole entry): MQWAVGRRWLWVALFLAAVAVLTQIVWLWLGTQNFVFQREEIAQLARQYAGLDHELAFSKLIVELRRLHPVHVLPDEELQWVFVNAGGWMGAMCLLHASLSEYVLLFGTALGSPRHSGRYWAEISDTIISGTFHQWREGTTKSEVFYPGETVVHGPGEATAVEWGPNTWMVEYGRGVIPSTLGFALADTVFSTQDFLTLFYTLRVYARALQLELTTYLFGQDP
- Assay Info: S1R radioligand binding assay, [3H](+)-pentazocine, guinea pig brain cortex homogenates
Recorded measurements of Ki, one per entry
Kindly format the answer as number then unit.

Recorded results for 5 molecules are shown here.
| Molecule | Assay Result |
| --- | --- |
| CC(C(=O)c1ccc(O)cc1)N1CCN(Cc2ccccc2)CC1 (centres unmarked) | 19 nM |
| COc1ccc(C(=O)C(C)N2CCN(Cc3ccccc3)CC2)cc1 (centres unmarked) | 1.4 nM |
| CC(C(=O)c1ccccc1)N1CCN(Cc2ccccc2)CC1 (centres unmarked) | 8 nM |
| CC(C(=O)c1ccccc1)N1CCCN(Cc2ccccc2)CC1 (centres unmarked) | 69 nM |
| CC(C(=O)c1ccc(O)cc1)N1CCCN(Cc2ccccc2)CC1 (centres unmarked) | 19 nM |

The recorded Ki for entry COc1ccc(C(=O)C(C)N2CCCN(Cc3ccccc3)CC2)cc1 (centres unmarked) equals 12 nM

Value of measured Ki for the entry COc1ccc(C(O)C(C)N(C)CCCCc2ccccc2)cc1 (centres unmarked) : 38 nM

Input CC(C(O)c1ccccc1)N(C)CCCCc1ccccc1 (centres unmarked) . Output Ki: 37 nM

###

- Target Of Assay: S1R (Cavia porcellus)
- Construct: Fresh guinea pig brain cortex was homogenized in ice-cold Tris (50 mM, pH 7.4); tissue ENVIGO RMS S.R.L., Udine, Italy (animals); host or cells: male Dunkin-Hartley guinea pig brain cortex membranes
- Assay Info: S1R radioligand binding assay, [3H](+)-pentazocine, guinea pig brain cortex homogenates
- Test Context: read-out: Ki S1R
pKi: −log10 of the molar value.
Label y when pKi is at or above 6; anything below gets n.

Exercise: Does pKi meet or surpass 6 for CC(C(=O)c1ccc(O)cc1)N(C)CCCCc1ccccc1 (stereo not shown) ?
Solution: y

Exercise: Entry COc1ccc(C(=O)C(C)N(C)CCCCc2ccccc2)cc1 (stereo not shown) : is its pKi no less than 6?
Solution: y

Exercise: Does pKi meet or surpass 6 for COc1ccc(C(=O)C(C)N2CCN(c3ccccc3)CC2)cc1 (stereo not shown) ?
Solution: n

Exercise: Is the recorded value of pKi equal to or greater than 6 for this molecule? CC(C(=O)c1ccccc1)N(C)CCCCc1ccccc1 (stereo not shown)
Solution: n

Exercise: Does the molecule COc1ccc(C(O)C(C)N2CCCN(Cc3ccccc3)CC2)cc1 (stereo not shown) have recorded pKi that is 6 or more?
Solution: y

Exercise: Could you verify whether the entry CC(C(=O)c1ccccc1)N1CCN(c2ccccc2)CC1 (stereo not shown) shows pKi of no less than 6?
Solution: n

###

Overview of reported S2R/S1R selectivity ratio across a group of compounds:
- Target Of Assay: S1R (Cavia porcellus)
- Construct: Fresh guinea pig brain cortex was homogenized in ice-cold Tris (50 mM, pH 7.4); tissue ENVIGO RMS S.R.L., Udine, Italy (animals); host or cells: male Dunkin-Hartley guinea pig brain cortex membranes
- Assay Info: S1R radioligand binding assay, [3H](+)-pentazocine, guinea pig brain cortex homogenates
- Test Context: ratio of Ki S2R to Ki S1R
Respond with the number and no other words.

Consider the worked cases shown below.
| Compound | Property | Assay Result |
| --- | --- | --- |
| CC(C(=O)c1ccccc1)N1CCN(Cc2ccccc2)CC1 (centres unmarked) | S2R/S1R selectivity ratio | 38 |
| CC(C(=O)c1ccc(O)cc1)N1CCN(c2ccccc2)CC1 (centres unmarked) | S2R/S1R selectivity ratio | 0.18 |

According to the records, this compound COc1ccc(C(O)C(C)N(C)CCCCc2ccccc2)cc1 (centres unmarked) displays S2R/S1R selectivity ratio of 13

Please fill in: S2R/S1R selectivity ratio reported for COc1ccc(C(=O)C(C)N2CCN(c3ccccc3)CC2)cc1 (centres unmarked) = 0.53

Notebook: COc1ccc(C(=O)C(C)N2CCCN(Cc3ccccc3)CC2)cc1 (centres unmarked) , S2R/S1R selectivity ratio read as 8.1

The compound listed as CC(C(=O)c1ccc(O)cc1)N1CCCN(Cc2ccccc2)CC1 (centres unmarked) has a reported S2R/S1R selectivity ratio of 1.1

Reported S2R/S1R selectivity ratio for CC(C(=O)c1ccccc1)N1CCN(c2ccccc2)CC1 (centres unmarked) was 0.05

Quick note, S2R/S1R selectivity ratio for CC(C(=O)c1ccc(O)cc1)N1CCN(Cc2ccccc2)CC1 (centres unmarked) landed at 6.8

The recorded S2R/S1R selectivity ratio for entry CC(C(=O)c1ccccc1)N(C)CCCCc1ccccc1 (centres unmarked) equals 0.15

Kindly note the recorded S2R/S1R selectivity ratio for CC(C(O)c1ccccc1)N(C)CCCCc1ccccc1 (centres unmarked) , which is 0.81
